Target: UniProt Q12809
Sequence (Q12809 whole entry): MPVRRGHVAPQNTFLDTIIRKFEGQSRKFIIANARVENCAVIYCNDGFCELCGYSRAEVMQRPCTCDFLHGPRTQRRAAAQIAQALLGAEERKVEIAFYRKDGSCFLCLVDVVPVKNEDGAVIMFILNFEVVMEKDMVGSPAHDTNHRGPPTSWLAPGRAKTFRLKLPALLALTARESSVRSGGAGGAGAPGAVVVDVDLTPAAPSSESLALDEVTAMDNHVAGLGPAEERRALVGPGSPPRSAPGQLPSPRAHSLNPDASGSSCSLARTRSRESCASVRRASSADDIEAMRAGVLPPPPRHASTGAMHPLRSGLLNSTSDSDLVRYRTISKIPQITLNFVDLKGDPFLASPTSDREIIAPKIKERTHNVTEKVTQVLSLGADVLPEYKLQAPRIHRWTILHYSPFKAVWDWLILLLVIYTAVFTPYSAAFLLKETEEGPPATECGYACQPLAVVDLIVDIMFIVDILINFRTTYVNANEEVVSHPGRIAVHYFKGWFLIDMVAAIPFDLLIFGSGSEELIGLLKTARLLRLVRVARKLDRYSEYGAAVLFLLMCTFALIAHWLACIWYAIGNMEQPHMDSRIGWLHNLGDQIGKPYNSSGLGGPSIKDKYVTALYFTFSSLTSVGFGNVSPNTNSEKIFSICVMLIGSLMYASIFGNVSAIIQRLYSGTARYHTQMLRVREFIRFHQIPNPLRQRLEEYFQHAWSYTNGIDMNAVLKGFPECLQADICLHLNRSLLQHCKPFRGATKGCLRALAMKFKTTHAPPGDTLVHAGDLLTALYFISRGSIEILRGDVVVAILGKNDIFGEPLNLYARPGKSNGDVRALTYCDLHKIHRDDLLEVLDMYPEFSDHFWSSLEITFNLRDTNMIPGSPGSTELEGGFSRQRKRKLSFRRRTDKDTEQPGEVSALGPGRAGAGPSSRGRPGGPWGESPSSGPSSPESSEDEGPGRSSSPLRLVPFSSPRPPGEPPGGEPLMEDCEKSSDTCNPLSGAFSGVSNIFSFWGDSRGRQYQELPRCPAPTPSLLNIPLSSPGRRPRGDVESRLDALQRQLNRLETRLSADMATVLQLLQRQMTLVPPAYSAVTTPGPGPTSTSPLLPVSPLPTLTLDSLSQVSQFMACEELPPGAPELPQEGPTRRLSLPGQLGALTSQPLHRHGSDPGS
Please go through the items and note down their pIC50.
One number for each entry, as −log10 of the molar value.

INSERT INTO results (compound, experimental_system, quantity_measured, quantitative_readout) VALUES
  ('O=c1n(CC(O)CN2C3CCC2CC(OCc2ccccc2F)C3)nc2n1CCC2 (stereo not given)', 'UniProt Q12809', 'pIC50', 4.71);

State recorded pIC50 for all listed compounds.
1. O=c1n(CC(F)CN2C3CCC2CC(OCc2ccccc2F)C3)nc2ccccn12 (stereo not given)
2. O=c1n(CC(O)CN2C3CCC2CC(OCc2ccccc2F)C3)nc2ccccn12 (stereo not given)
3. O=c1n(CCCN2C3CCC2CC(COc2ccccc2F)C3)nc2ccccn12 (stereo not given)
4. O=c1n(CCCN2C3CCC2CC(OCc2ccccc2F)C3)nc2n1CCC2 (stereo not given)
5. O=c1n(CCCN2C3CCC2CC(OCc2ccccc2F)C3)nc2ccccn12 (stereo not given)
6. O=c1n(CCCN2C3CCC2(F)CC(OCc2ccccc2F)C3)nc2ccccn12 (stereo not given)
7. O=c1n(CC(F)CN2C3CCC2CC(OCc2ccccc2F)C3)nc2n1CCC2 (stereo not given)

Reply text:
[5.74, 5.92, 7.15, 5.28, 6.96, 5.12, 4.65]

---

Assay: Aqueous solubility of the compound in PBS buffer at pH 7.4
Type: physicochemical
quantity measured: solubility (µM)
One number for each entry, in µM.

Worked cases, solubility given:
INSERT INTO assay_data (compound, result_unit, quantitative_readout) VALUES
  ('O=c1n(CC(O)CN2C3CCC2CC(OCc2ccccc2F)C3)nc2ccccn12 (stereo not given)', 'µM', 95),
  ('O=c1n(CCCN2C3CCC2CC(OCc2ccccc2F)C3)nc2ccccn12 (stereo not given)', 'µM', 99),
  ('O=c1n(CC(F)CN2C3CCC2CC(OCc2ccccc2F)C3)nc2ccccn12 (stereo not given)', 'µM', 82),
  ('O=c1n(CCCN2C3CCC2(F)CC(COc2ccccc2F)C3)nc2ccccn12 (racemic)', 'µM', 61);

State recorded solubility for all listed compounds.
1. O=c1n(CC(F)CN2C3CCC2CC(OCc2ccccc2F)C3)nc2n1CCC2 (stereo not given)
2. O=c1n(CCCN2C3CCC2(F)CC(OCc2ccccc2F)C3)nc2ccccn12 (stereo not given)
3. O=c1n(CCCN2C3CCC2CC(COc2ccccc2F)C3)nc2ccccn12 (stereo not given)
4. O=c1n(CC(O)CN2C3CCC2CC(OCc2ccccc2F)C3)nc2n1CCC2 (stereo not given)
5. O=c1n(CCCN2C3CCC2(F)CC(OCc2ccccc2F)C3)nc2n1CCC2 (stereo not given)

Reply text:
1. 82
2. 73
3. 95
4. 94
5. 96

---

Test: Aqueous solubility of the compound in JP1 at pH 1.2
Type: physicochemical
Conditions: JP1, pH 1.2
Please go through the items and note down their solubility.

Worked cases, solubility given:
INSERT INTO assay_data (compound, quantity_measured, result) VALUES
  ('O=c1n(CCCN2C3CCC2CC(OCc2ccccc2F)C3)nc2ccccn12 (stereo not given)', 'solubility', '≥ 100 µM'),
  ('O=c1n(CCCN2C3CCC2CC(COc2ccccc2F)C3)nc2ccccn12 (stereo not given)', 'solubility', '≥ 100 µM');

State recorded solubility for all listed compounds.
1. O=c1n(CCCN2C3CCC2(F)CC(COc2ccccc2F)C3)nc2ccccn12 (racemic)
2. O=c1n(CC(F)CN2C3CCC2CC(OCc2ccccc2F)C3)nc2n1CCC2 (stereo not given)
3. O=c1n(CCCN2C3CCC2(F)CC(OCc2ccccc2F)C3)nc2ccccn12 (stereo not given)

Reply text:
["≥ 100 µM", "79 µM", "≥ 100 µM"]

---

Please go through the items and note down their efflux ratio.
Biological target: P-gp (ABCB1) (Homo sapiens)
Sequence (P08183 whole entry): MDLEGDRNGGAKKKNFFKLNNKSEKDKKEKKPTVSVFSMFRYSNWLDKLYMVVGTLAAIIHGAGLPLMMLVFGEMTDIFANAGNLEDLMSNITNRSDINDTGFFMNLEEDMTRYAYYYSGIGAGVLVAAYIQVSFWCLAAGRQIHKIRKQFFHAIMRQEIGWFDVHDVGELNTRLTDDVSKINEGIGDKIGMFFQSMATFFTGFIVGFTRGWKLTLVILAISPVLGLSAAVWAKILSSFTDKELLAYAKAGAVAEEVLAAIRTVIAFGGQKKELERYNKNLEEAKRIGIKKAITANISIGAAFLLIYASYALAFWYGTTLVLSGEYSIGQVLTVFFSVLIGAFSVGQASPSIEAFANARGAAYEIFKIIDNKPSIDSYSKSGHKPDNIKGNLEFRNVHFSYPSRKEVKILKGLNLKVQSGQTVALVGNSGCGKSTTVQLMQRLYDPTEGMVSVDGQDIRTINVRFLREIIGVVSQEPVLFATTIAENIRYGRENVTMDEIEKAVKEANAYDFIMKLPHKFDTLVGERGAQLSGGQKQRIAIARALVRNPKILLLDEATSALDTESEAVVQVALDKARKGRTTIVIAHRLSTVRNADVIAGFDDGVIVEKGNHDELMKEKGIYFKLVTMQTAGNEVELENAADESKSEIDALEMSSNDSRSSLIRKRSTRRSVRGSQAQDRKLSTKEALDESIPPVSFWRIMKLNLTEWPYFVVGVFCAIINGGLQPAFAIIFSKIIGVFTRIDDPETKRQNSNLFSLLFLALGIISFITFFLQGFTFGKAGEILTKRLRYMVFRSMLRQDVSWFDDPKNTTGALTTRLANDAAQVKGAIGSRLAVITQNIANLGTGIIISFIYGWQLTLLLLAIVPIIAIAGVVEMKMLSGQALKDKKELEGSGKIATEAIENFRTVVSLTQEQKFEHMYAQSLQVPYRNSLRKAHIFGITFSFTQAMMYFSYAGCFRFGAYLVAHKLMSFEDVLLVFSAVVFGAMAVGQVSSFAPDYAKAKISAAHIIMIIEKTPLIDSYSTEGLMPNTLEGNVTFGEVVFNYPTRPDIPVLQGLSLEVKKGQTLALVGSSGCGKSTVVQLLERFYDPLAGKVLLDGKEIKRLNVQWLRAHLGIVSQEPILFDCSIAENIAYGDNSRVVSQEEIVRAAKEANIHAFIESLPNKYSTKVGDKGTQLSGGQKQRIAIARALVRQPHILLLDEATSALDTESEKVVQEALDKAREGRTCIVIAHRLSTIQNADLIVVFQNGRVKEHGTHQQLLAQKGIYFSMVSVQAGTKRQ
Test: Substrate activity at P-gp (unknown origin) assessed as efflux ratio
Format: ADME
Conditions: not told
Answers are plain numbers.

INSERT INTO results (compound, quantity_measured, quantitative_readout) VALUES
  ('O=c1n(CCCN2C3CCC2(F)CC(OCc2ccccc2F)C3)nc2ccccn12 (stereo not given)', 'efflux ratio', 0.96),
  ('O=c1n(CC(O)CN2C3CCC2CC(OCc2ccccc2F)C3)nc2ccccn12 (stereo not given)', 'efflux ratio', 6.36),
  ('O=c1n(CC(O)CN2C3CCC2CC(OCc2ccccc2F)C3)nc2n1CCC2 (stereo not given)', 'efflux ratio', 9.16);

State recorded efflux ratio for all listed compounds.
1. O=c1n(CCCN2C3CCC2CC(OCc2ccccc2F)C3)nc2ccccn12 (stereo not given)
2. O=c1n(CC(F)CN2C3CCC2CC(OCc2ccccc2F)C3)nc2n1CCC2 (stereo not given)
3. O=c1n(CCCN2C3CCC2(F)CC(OCc2ccccc2F)C3)nc2n1CCC2 (stereo not given)

Reply text:
1: 3.39; 2: 2.52; 3: 1.39

---

Assay: Permeability of the compound by PAMPA method
Type: ADME
Conditions: read-out: permeability
Please go through the items and note down their Papp.
Numbers only, in ×10⁻⁶ cm/s.

Worked cases, Papp given:
INSERT INTO results (molecule, quantitative_readout) VALUES
  ('O=c1n(CCCN2C3CCC2(F)CC(OCc2ccccc2F)C3)nc2ccccn12 (stereo not given)', 10.6),
  ('O=c1n(CCCN2C3CCC2(F)CC(COc2ccccc2F)C3)nc2ccccn12 (racemic)', 11.1),
  ('O=c1n(CC(O)CN2C3CCC2CC(OCc2ccccc2F)C3)nc2n1CCC2 (stereo not given)', 0.46),
  ('O=c1n(CCCN2C3CCC2CC(OCc2ccccc2F)C3)nc2ccccn12 (stereo not given)', 4.93),
  ('O=c1n(CCCN2C3CCC2CC(COc2ccccc2F)C3)nc2ccccn12 (stereo not given)', 4.86);

State recorded Papp for all listed molecules.
1. O=c1n(CCCN2C3CCC2(F)CC(OCc2ccccc2F)C3)nc2n1CCC2 (stereo not given)
2. O=c1n(CC(F)CN2C3CCC2CC(OCc2ccccc2F)C3)nc2n1CCC2 (stereo not given)
3. O=c1n(CC(F)CN2C3CCC2CC(OCc2ccccc2F)C3)nc2ccccn12 (stereo not given)

Reply text:
7.78
4.44
10.6

State recorded Papp for all listed molecules.
1. O=c1n(CCCN2C3CCC2CC(OCc2ccccc2F)C3)nc2n1CCC2 (stereo not given)
2. O=c1n(CC(O)CN2C3CCC2CC(OCc2ccccc2F)C3)nc2ccccn12 (stereo not given)

Reply text:
1: 1.62; 2: 2.16

---

Test: Microsomal stability in human liver microsomes assessed as parent compound remaining measured after 15 mins
Type: ADME, Microsome
Details: read-out: Stability
Please go through the items and note down their remaining at 0.25 h.
Give bare numbers, in %.

Worked cases, remaining at 0.25 h given:
INSERT INTO results (compound, quantity_measured, result_unit, quantitative_readout) VALUES
  ('O=c1n(CC(F)CN2C3CCC2CC(OCc2ccccc2F)C3)nc2ccccn12 (stereo not given)', 'remaining at 0.25 h', '%', 66.9),
  ('O=c1n(CCCN2C3CCC2(F)CC(OCc2ccccc2F)C3)nc2ccccn12 (stereo not given)', 'remaining at 0.25 h', '%', 10.7),
  ('O=c1n(CCCN2C3CCC2CC(OCc2ccccc2F)C3)nc2n1CCC2 (stereo not given)', 'remaining at 0.25 h', '%', 95.8),
  ('O=c1n(CC(O)CN2C3CCC2CC(OCc2ccccc2F)C3)nc2n1CCC2 (stereo not given)', 'remaining at 0.25 h', '%', 99.8),
  ('O=c1n(CCCN2C3CCC2CC(OCc2ccccc2F)C3)nc2ccccn12 (stereo not given)', 'remaining at 0.25 h', '%', 70.9);

State recorded remaining at 0.25 h for all listed compounds.
1. O=c1n(CCCN2C3CCC2CC(COc2ccccc2F)C3)nc2ccccn12 (stereo not given)
2. O=c1n(CC(F)CN2C3CCC2CC(OCc2ccccc2F)C3)nc2n1CCC2 (stereo not given)
3. O=c1n(CCCN2C3CCC2(F)CC(OCc2ccccc2F)C3)nc2n1CCC2 (stereo not given)
4. O=c1n(CC(O)CN2C3CCC2CC(OCc2ccccc2F)C3)nc2ccccn12 (stereo not given)
5. O=c1n(CCCN2C3CCC2(F)CC(COc2ccccc2F)C3)nc2ccccn12 (racemic)

Reply text:
45.6
92.3
31.8
82
34.7

---

Experiment: Dissociation constant, pKa of the compound
Type: physicochemical
Please go through the items and note down their pKa.
Answers are plain numbers.

State recorded pKa for all listed compounds.
1. O=c1n(CCCN2C3CCC2(F)CC(OCc2ccccc2F)C3)nc2ccccn12 (stereo not drawn)
2. O=c1n(CC(F)CN2C3CCC2CC(OCc2ccccc2F)C3)nc2ccccn12 (stereo not drawn)
3. O=c1n(CCCN2C3CCC2CC(OCc2ccccc2F)C3)nc2ccccn12 (stereo not drawn)

Reply text:
[5.4, 8.1, 8.7]

---

Molecular target: Sodium channel protein type 5 subunit alpha (Homo sapiens)
Sequence (Q14524 whole entry): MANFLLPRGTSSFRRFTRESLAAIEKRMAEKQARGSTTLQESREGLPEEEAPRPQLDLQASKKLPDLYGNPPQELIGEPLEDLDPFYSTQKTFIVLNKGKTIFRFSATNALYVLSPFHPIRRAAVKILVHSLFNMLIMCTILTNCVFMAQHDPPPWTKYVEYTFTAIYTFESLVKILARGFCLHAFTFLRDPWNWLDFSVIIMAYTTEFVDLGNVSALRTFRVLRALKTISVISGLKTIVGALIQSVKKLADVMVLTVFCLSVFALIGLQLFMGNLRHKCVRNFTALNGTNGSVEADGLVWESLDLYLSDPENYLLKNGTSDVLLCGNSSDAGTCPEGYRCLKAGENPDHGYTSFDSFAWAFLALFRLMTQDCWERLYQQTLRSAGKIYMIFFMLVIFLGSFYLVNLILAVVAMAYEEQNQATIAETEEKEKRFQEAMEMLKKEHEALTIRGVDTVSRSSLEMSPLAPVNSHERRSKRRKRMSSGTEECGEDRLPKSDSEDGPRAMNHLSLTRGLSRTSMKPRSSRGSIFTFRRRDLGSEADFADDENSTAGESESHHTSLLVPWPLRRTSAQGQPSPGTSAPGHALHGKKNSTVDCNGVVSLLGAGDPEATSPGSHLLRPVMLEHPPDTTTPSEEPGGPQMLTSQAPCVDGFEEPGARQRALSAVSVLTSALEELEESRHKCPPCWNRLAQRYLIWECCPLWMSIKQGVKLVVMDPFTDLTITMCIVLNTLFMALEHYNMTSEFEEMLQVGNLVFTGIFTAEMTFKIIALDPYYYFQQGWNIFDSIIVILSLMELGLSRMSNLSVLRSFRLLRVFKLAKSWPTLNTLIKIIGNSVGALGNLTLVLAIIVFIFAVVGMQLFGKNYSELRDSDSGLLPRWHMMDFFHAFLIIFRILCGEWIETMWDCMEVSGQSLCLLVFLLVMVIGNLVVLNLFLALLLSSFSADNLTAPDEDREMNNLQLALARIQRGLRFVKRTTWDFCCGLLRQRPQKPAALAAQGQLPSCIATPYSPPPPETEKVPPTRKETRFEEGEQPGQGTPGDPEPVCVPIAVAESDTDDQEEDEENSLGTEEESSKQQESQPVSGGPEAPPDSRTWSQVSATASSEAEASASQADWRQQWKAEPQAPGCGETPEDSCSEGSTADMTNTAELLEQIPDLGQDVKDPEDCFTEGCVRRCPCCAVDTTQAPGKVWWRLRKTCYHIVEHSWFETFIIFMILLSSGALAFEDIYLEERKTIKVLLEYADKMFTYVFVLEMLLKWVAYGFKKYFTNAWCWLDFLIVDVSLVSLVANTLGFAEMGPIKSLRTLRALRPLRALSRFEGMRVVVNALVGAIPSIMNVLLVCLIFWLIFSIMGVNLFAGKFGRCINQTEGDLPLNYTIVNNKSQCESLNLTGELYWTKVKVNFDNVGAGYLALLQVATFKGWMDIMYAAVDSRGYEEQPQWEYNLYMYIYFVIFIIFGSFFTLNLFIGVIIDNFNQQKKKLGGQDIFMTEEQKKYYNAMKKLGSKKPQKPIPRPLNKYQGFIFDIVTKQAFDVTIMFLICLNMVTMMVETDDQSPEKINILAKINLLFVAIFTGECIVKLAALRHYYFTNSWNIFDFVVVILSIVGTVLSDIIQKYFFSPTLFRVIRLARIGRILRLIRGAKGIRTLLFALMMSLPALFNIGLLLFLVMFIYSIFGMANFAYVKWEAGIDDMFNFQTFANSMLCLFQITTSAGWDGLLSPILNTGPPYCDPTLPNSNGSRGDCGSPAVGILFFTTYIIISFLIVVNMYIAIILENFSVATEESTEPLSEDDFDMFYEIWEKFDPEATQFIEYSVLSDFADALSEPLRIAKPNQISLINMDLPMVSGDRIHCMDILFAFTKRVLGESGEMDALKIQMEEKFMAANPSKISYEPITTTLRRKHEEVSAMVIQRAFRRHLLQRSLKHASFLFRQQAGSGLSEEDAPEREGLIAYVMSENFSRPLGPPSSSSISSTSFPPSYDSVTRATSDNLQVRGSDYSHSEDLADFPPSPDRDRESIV
Experiment: Inhibition of Nav1.5 (unknown origin)
Please go through the items and note down their IC50.
Numbers only, in µM.

Worked cases, IC50 given:
INSERT INTO results (compound, experimental_system, quantity_measured, result_unit, quantitative_readout) VALUES
  ('O=c1n(CC(O)CN2C3CCC2CC(OCc2ccccc2F)C3)nc2n1CCC2 (stereo not given)', 'Sodium channel protein type 5 subunit alpha (Homo sapiens)', 'IC50', 'µM', 12.9),
  ('O=c1n(CCCN2C3CCC2CC(OCc2ccccc2F)C3)nc2ccccn12 (stereo not given)', 'Sodium channel protein type 5 subunit alpha (Homo sapiens)', 'IC50', 'µM', 3),
  ('O=c1n(CCCN2C3CCC2CC(OCc2ccccc2F)C3)nc2n1CCC2 (stereo not given)', 'Sodium channel protein type 5 subunit alpha (Homo sapiens)', 'IC50', 'µM', 5.9),
  ('O=c1n(CC(F)CN2C3CCC2CC(OCc2ccccc2F)C3)nc2n1CCC2 (stereo not given)', 'Sodium channel protein type 5 subunit alpha (Homo sapiens)', 'IC50', 'µM', 13.4),
  ('O=c1n(CCCN2C3CCC2CC(COc2ccccc2F)C3)nc2ccccn12 (stereo not given)', 'Sodium channel protein type 5 subunit alpha (Homo sapiens)', 'IC50', 'µM', 6);

State recorded IC50 for all listed compounds.
1. O=c1n(CC(O)CN2C3CCC2CC(OCc2ccccc2F)C3)nc2ccccn12 (stereo not given)
2. O=c1n(CC(F)CN2C3CCC2CC(OCc2ccccc2F)C3)nc2ccccn12 (stereo not given)

Reply text:
11.9
17.8

Data provenance is ChEMBL document CHEMBL5584226.
